Assay: soluble fraction after stress (log2 fold change); higher = more stays soluble; pooled small domains, quantitative proteomics
Details: stress: pH 4
Please enter Met where soluble fraction (log2) is greater than or equal to -0.6, and Not met where it is lower.

# MONOMER SEQUENCE, CLASS LABEL
records = [
    ("HMKKGATVSGVIVEKTKKSLIIDLGAKTEGVVADKEFEFAIDFVKELKKGDEVKAIVISTDNDKGQVVLSL", "Met"),
    ("HMGTELSYSEFLNKVEAGEVTNVTIRGPEITFQTGNSSYTTYAPDDPKLIEHLTAKGVAIKAGP", "Met"),
    ("HMDVRKSISDLKALGLSDAAVTVYGTIGNKPVHIDKIVSELGIPVFKVLTALTQLEMKGLVTAMQGRMYVL", "Met"),
    ("HMKRVPFAFAGDMLRWAAWLYHVEKRTQNEIAEELEVSRQTVANYLSEAMSQGLVQVQLRSDIIE", "Not met"),
]

Task item: Identify whether the reported soluble fraction (log2) of the following sequence is -0.6 or greater: HMELNELTSRELMVAEQVARGASNREISEALSISERTVKAHLSAAFEKLGVRDRVQLALAMNNIPT
Reply: Not met

Task item: Identify whether the reported soluble fraction (log2) of the following sequence is -0.6 or greater: HMVNPDAPAPLYIVNGKETDKNIALAIKPEDVQDVRIIKNTVALQVYGEKGKNGVVIINTKPGV
Reply: Met

Task item: Identify whether the reported soluble fraction (log2) of the following sequence is -0.6 or greater: HMHQAADFAGFITFNKDGVEQFSFGKYKNQTVVSVLEKDPGYYSWIQNADFPLYTKKILTAIRLAM
Reply: Met

---

Experiment: soluble fraction after stress (log2 fold change); higher = more stays soluble; pooled small domains, quantitative proteomics
Conditions: stress: pH 4
Please enter Criterion met where soluble fraction (log2) is greater than or equal to -0.01, and Criterion not met where it is lower.

Recorded results for 5 sequences are shown here.
# MONOMER SEQUENCE, CLASS LABEL
data = [
    ("HMSSQVFLGQKNSIAKYDLNENKPIWTKEIKGTPLILSTWKDMLLIQIQTWVSYTHMLVKQENGQTVWE", "Criterion met"),
    ("HMIGIGSDVPNKLKPAIYSFGLVAVGEKSVIPDGVQIGKNTAVSGVTSKEDYPDGVLESGETLIKA", "Criterion met"),
    ("HMGMETQLSPKEKSIYTIIQNRPNIQSGEVSEKLAIPLPTVKRILSDLINKGLIEKQGSGRNVSYTI", "Criterion met"),
    ("HMRTANREKRIEASVKMMKAGYPVGYIIARVFMYEGWEEDYRQLLIYLSEKIPKDVSNPITFEVIS", "Criterion not met"),
    ("HMDIAATTVKQKIRTLLADEDAARPLSDQKIADALAEDGIDVARRTVAKYREELGIEPSWARKR", "Criterion met"),
]

Task item: Identify whether the reported soluble fraction (log2) of the following sequence is -0.01 or greater: HMGLVDSLEPLLRRVYEALPQRRSMTTERLAVAAGLDEESVKVALARLQLSAFVGVDERGWHRSL
Reply: Criterion not met

Task item: Identify whether the reported soluble fraction (log2) of the following sequence is -0.01 or greater: HMIAIGDDARLDDAARFFRIAEDSYAAGDYRKSKENYIEARKLYAELGDHEKVNLINSKISAIDSIT
Reply: Criterion not met

Task item: Identify whether the reported soluble fraction (log2) of the following sequence is -0.01 or greater: HMDFMNSEIKKIVEDLKLTLQSLNYTKNEIKSILPVINKETDNLIKKEKYASFENLLRLAMNHLDNN
Reply: Criterion not met
